These measurements were taken from the supplement of paper PMC10567573.

B1: EPB41L3 (parent)
chain: GSKFRYSGRTQAQTRRASALIDRP

- Variants of: B1
- Run Description: protein stability index of a GFP-peptide fusion (GPS, HEK-293T) (PSI 1-6); higher = more stable;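 further: lentivirally expressed fusions sorted by FACS into six bins by GFP to DsRed ratio, PSI derived from sequencing read proportions per bin multiplied by bin number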
- Details: c terminus: a fixed tail appended
The entries below are paired with their reported protein stability index.
// no unit string in output, number only

These recorded examples may help you get a feel for the data.
The recorded protein stability index for entry S18V equals 2.85

The variant S7Q showed protein stability index equal to 2.86

Kindly note the recorded protein stability index for R5W , which is 2.62

The measured protein stability index associated with A17L reads 2.65

According to the records, this variant I21L displays protein stability index of 3.17

Further cases:
The reported protein stability index of the variant R9M was 2.85

Short answer for R5M : protein stability index was 4.43

Notebook: R16T , protein stability index read as 3.4

// protein stability index lookup, variant = Q13L , result: 2.91
